Tested on: Tau phosphorylation at Ser396 (pSer396), SH-SY5Y cells
Test: Tau phosphorylation at Ser396 (pSer396) in SH-SY5Y cells, ELISA/western blot
Format: cell-based, human
Details: Homo sapiens; SH-SY5Y cells, overnight (16-18 h); read-out: pSer396 Tau EC50
Measurement name: EC50 (nM)

Worked cases, answers included:
Cc1ncc(-c2ccc3cnc(NC(=O)[C@H]4CC[C@H](N)CC4)cc3c2)o1
1100
COCCN[C@H]1CC[C@H](C(=O)Nc2cc3cc(-c4nnc(C)s4)ccc3cn2)CC1
234
COC1CCN(CC(=O)Nc2cc3cc(-c4nnc(C)s4)ccc3cn2)CC1
135

(P) Cn1cc(-c2ccc3cnc(NC(=O)CN4CCOCC4)cc3c2)nn1
(Q) [2H]c1c(NC(=O)CN2CCOCC2)ncc2ccc(-c3cnn(C)c3)cc12
(R) Cc1nnc(-c2ccc3cnc(NC(=O)N4CCN(C)[C@H](C)C4)cc3c2)s1
Asked: Would you mind ranking these compounds by ascending EC50? Answer format: the labels, in the requested order.
Given back: P, Q, R
(P: 190 nM, Q: 948 nM, R: 3100 nM)

----------
System: Tau phosphorylation at Ser396 (pSer396), SH-SY5Y cells
Test: Tau phosphorylation at Ser396 (pSer396) in SH-SY5Y cells, ELISA/western blot;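 also: cell lysates probed for reduced Tau pSer396 via ELISA (colorimetric) or western blot (chemiluminescence), both with one shared pSer396 antibody, EC50 for lowering phosphorylation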
Format: cell-based, human
Conditions: Homo sapiens; SH-SY5Y cells, overnight (16-18 h); read-out: pSer396 Tau EC50
pEC50: −log10 of the molar value.
Measurement name: pEC50

Previously resolved entries follow.
CN1CCC(N(C)C(=O)Nc2cc3cc(-c4cn(C)nn4)cc(F)c3cn2)CC1
5.19
CN(C)C1CCN(C(=O)Nc2cc3cc(-c4cnn(C)c4)ccc3cn2)CC1
5.51
CC(C)CN1CCC(CC(=O)Nc2cc3cc(-c4cnn(C)c4)ccc3cn2)C1 (centres unmarked)
7.16
Cc1ncc(-c2ccc3cnc(NC(=O)N4CCOCC4)cc3c2)n1C
5.33
[2H]c1c(NC(=O)CN2CCOCC2)ncc2ccc(-c3nnc(C)s3)cc12
6.44

(I) Cn1cc(-c2cc(F)c3cnc(NC(=O)[C@H]4CC[C@H](N5CCOCC5)CC4)cc3c2)nn1
(II) Cc1ncc(-c2ccc3cnc(NC(=O)[C@H]4CC[C@H](N(C)C)CC4)cc3c2)o1
Asked: Of the two listed items, which has the higher pEC50? First: I Second: II Kindly state the label of the option you pick.
Given back: I

----------
System: IL-6
Assay: IL-6 inhibition in LPS-stimulated human peripheral blood mononuclear cells (HTRF)
Format: cell-based
Details: IL-6, LPS-stimulated huPBMCs, HTRF
Measurement name: EC50

Asked: Kindly indicate its recorded EC50. Item: Cc1ncc(-c2ccc3cnc(NC(=O)C4CCN(CC(C)(F)F)CC4)cc3c2)o1
Given back: > 10 µM

----------
Molecular target: DYRK1A kinase (Homo sapiens (Human))
Test: DYRK1A kinase assay (Ser/Thr 18 peptide Z-lyte, FRET)
Conditions: DYRK1A kinase; method text calls the value IC50
Measurement name: EC50 (µM)

Here are 4 compounds together with their reported answers.
Cc1ncc(-c2ccc3cnc(NC(=O)N4CCOCC4)cc3c2)n1C
0.013
Cc1nnc(-c2ccc3cnc(NC(=O)N4CC5CCC(C4)N5C)cc3c2)s1
0.017
Cc1nnc(-c2ccc3cnc(NC(=O)N4CCC(N)CC4)cc3c2)s1
0.013
Cc1nnc(-c2ccc3cnc(NC(=O)N4[C@@H]5CC[C@H]4C[C@@H](NCC(F)F)C5)cc3c2)s1
0.003

(P) Cn1cc(-c2cc3cc(NC(=O)[C@H]4CC[C@H](N(C)C)CC4)ncc3cc2F)cn1
(Q) Cc1nnc(-c2ccc3cnc(NC(=O)N4CCOCC4)cc3c2)s1
(R) CC(C)N1CCN(C(=O)Nc2cc3cc(-c4cnn(C)c4)ccc3cn2)CC1
(S) CNC1CCN(C(=O)Nc2cc3cc(-c4nnc(C)s4)ccc3cn2)CC1
Asked: Please list these compounds in decreasing order of EC50. Reply format: the labels, ordered as requested.
Given back: R, S, Q, P
